- Assayed System: Mu-type opioid receptor (Homo sapiens, UniProt P35372)
- Sequence (P35372 whole entry): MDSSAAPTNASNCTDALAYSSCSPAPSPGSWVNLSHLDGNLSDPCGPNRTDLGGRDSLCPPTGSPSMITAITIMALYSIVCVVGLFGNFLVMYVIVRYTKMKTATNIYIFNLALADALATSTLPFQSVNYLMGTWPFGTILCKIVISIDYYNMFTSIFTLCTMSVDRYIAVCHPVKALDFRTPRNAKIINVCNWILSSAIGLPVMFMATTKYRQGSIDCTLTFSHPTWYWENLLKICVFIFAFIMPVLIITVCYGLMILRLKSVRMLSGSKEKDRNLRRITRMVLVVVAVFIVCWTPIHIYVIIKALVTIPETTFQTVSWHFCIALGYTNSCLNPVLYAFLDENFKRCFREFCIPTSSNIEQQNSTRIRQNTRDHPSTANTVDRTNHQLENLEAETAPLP
pKi: −log10 of the molar value.
Experimental Readout: pKi

{"Smiles": "CN1CC[C@]2(c3cccc(O)c3)C[C@H](O)C[C@@H]1C2", "Experimental Result": 7.66}

---

- Assayed System: Kappa-type opioid receptor (Homo sapiens, UniProt P41145)
- Sequence (P41145 whole entry): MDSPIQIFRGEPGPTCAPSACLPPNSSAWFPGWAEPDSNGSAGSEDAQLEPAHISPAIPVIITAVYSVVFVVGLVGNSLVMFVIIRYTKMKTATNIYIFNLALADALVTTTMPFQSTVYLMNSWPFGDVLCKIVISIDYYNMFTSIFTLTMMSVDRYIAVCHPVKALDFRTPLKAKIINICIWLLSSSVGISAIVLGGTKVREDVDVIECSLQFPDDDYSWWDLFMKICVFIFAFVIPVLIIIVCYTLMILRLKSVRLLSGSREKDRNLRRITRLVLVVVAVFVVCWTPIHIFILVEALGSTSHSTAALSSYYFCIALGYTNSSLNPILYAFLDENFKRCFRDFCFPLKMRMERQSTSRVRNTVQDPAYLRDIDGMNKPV

{"Smiles": "CN1CC[C@]2(c3cccc(O)c3)C[C@H](O)C[C@@H]1C2", "Ki, nM": 1230}

Reference source: ChEMBL document CHEMBL2417511
